Reported Efficacy (%) NLuc (- ATP) values follow for various compounds
measurementTarget: NLuc (Oplophorus gracilirostris, UniProt Q9GV45, A31E/A60N/A81I/F95D/I117V/K70R/L54V/L99Q/M102K/N193R/P142E/Q151K/Q38R/Q45L/V71I/Y165I)
Construct: His tag (inferred from IMAC purification); made in house; host or cells: E. coli
Sequence (Q9GV45 other isoform, or with tags, fused parts or gaps with the stated changes): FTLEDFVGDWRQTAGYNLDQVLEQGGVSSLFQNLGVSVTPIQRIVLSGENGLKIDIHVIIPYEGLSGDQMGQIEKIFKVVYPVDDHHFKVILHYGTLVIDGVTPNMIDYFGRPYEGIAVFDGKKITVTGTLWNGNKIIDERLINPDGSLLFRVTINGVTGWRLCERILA
Assay type: biochemical
conditionSummary: - ATP
Note: unit % is implicit; provide only the numeric part.

What does the data say about its Efficacy (%) NLuc (- ATP)? Entry: CC1CCC(NC(=O)C2CCN(C(=O)c3ncn4c3COC(c3ccc(F)cc3)C4)CC2)CC1 (stereo not drawn) [NCGC00449808-01]
0.00

Please give the measured Efficacy (%) NLuc (- ATP) for this compound: O=C(NCc1ccc(F)c(Cl)c1)C1CCN(C(=O)c2ncn3c2COC(c2ccccc2)C3)CC1 (stereo not drawn) [NCGC00449790-01]
-17.00

Consider the compound O=C(NCc1ccc(F)cc1F)C1CCN(C(=O)c2ncn3c2COC(c2ccc(F)cc2)C3)CC1 (stereo not drawn) [NCGC00449819-01] and give its measured Efficacy (%) NLuc (- ATP).
0.00

What does the record list as Efficacy (%) NLuc (- ATP) for CSc1ccc(CNC(=O)C2CCN(C(=O)c3ncn4c3COC(c3ccccc3)C4)CC2)cc1 (stereo not drawn) [NCGC00449782-01] ?
-35.74

Which Efficacy (%) NLuc (- ATP) is reported for this compound? CCc1ccc(CNC(=O)C2CCN(C(=O)c3ncn4c3COC(c3ccccc3)C4)CC2)cc1 (stereo not drawn) [NCGC00449775-01]
0.00

Look up Efficacy (%) NLuc (- ATP): Cc1ccc(NC(=O)C2CCN(C(=O)c3ncn4c3COC(c3ccc(F)cc3)C4)CC2)c(F)c1 (stereo not drawn) [NCGC00449944-01]
0.00

Name the recorded Efficacy (%) NLuc (- ATP) for O=C(NCc1ccc(F)cc1)C1CCN(C(=O)c2ncn3c2COC(c2ccccc2)C3)CC1 (stereo not drawn) [NCGC00449784-01] .
0.00

# Efficacy (%) NLuc (- ATP) lookup, item O=C(NCc1ccccc1F)C1CCN(C(=O)c2ncn3c2COC(c2ccccc2)C3)CC1 (stereo not drawn) [NCGC00449783-01]
14.02

Please report the recorded Efficacy (%) NLuc (- ATP) for CCOc1cccc(CNC(=O)C2CCN(C(=O)c3ncn4c3COC(c3ccccc3)C4)CC2)c1 (stereo not drawn) [NCGC00449780-01] .
0.00

Can you share its Efficacy (%) NLuc (- ATP)? I mean this compound: O=C(NCc1cccc(F)c1)C1CCN(C(=O)c2ncn3c2COC(c2ccc(F)cc2)C3)CC1 (stereo not drawn) [NCGC00449837-01]
0.00

---

measurementTarget: UniProtKB P08659
Sequence (P08659 whole entry): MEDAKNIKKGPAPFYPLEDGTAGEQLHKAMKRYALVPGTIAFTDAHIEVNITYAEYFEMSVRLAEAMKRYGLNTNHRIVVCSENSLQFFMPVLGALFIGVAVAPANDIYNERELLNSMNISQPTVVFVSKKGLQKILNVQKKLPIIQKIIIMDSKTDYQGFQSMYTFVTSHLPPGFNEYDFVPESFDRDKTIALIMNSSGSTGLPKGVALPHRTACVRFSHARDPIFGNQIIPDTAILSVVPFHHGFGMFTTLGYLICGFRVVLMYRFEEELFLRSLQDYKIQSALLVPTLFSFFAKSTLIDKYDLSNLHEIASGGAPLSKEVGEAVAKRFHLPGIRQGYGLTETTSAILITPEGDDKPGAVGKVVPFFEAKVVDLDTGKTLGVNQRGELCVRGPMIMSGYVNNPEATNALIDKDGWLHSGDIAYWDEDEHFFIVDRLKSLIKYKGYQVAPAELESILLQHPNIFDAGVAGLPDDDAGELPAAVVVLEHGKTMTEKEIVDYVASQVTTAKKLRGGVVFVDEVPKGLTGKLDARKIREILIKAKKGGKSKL
assayText: FLuc enzymatic luminescence assay, P. pyralis FLuc
Assay type: biochemical
conditionSummary: FLuc enzymatic assay; Clade S follow-up; read-out: IC50 or SDR50 (mM) FLuc E
experimentalReadout: IC50 (mM)
Use mM as the unit, but write only the number.

Guide cases for IC50, answers given:
COc1ccc(NC(=O)C2CCN(C(=O)c3ncn4c3COC(c3ccccc3)C4)CC2)cc1OC (stereo not drawn): 0.00312
Cc1ccc(C2Cn3cnc(C(=O)N4CCC(C(=O)NC5CCCCC5)CC4)c3CO2)cc1 (stereo not drawn): 0.0124
Cc1ccc(C2Cn3cnc(C(=O)N4CCC(C(=O)NCc5ccc(F)cc5F)CC4)c3CO2)cc1 (stereo not drawn): 0.00988
O=C(NCc1ccncc1)C1CCN(C(=O)c2ncn3c2COC(c2ccc(F)cc2)C3)CC1 (stereo not drawn): 0.00623
Cc1ccc(NC(=O)C2CCN(C(=O)c3ncn4c3COC(c3ccc(F)cc3)C4)CC2)c(F)c1 (stereo not drawn): 0.0111

What does the record list as IC50 for Cc1ccc(C2Cn3cnc(C(=O)N4CCC(C(=O)NCc5cccc(F)c5)CC4)c3CO2)cc1 (stereo not drawn) ?
0.00988

IC50 lookup needed for Cc1ccc(C2Cn3cnc(C(=O)N4CCC(C(=O)NCCCc5ccccc5)CC4)c3CO2)cc1 (stereo not drawn) , thanks.
0.00988

Field request: IC50 | item: Cc1ccc(C2Cn3cnc(C(=O)N4CCC(C(=O)NCc5ccccc5Cl)CC4)c3CO2)cc1 (stereo not drawn)
0.0111

What IC50 value was documented for this molecule, Cc1cccc(CNC(=O)C2CCN(C(=O)c3ncn4c3COC(c3ccc(F)cc3)C4)CC2)c1 (stereo not drawn) ?
0.0124

Need IC50, item Cc1ccc(C2Cn3cnc(C(=O)N4CCC(C(=O)NCc5ccccc5)CC4)c3CO2)cc1 (stereo not drawn)
0.0111

Looking for the measured IC50 of Cc1cc(C)cc(NC(=O)C2CCN(C(=O)c3ncn4c3COC(c3ccccc3)C4)CC2)c1 (stereo not drawn) , can you help?
0.0035
